Test: yeast display, Sf9 membrane polyspecificity reagent, FACS + sequencing; frameworks hold sequencing errors
measurement_name: polyreactivity (PSR sort gate)

Example entries begin here.
QGQLVESGGGLFQAGGSLSLSCASSGRTITHNVMGWYRQAPGKEMELVAGISSTGGSTYYADSVKGRFTISRDNSKNTVYLQMNSLKPEDTAVYYCAKEYYDGYFPSFDYEYWGQGTQVTVSS = low polyreactivity
QVQLVESGGGLVQAGGSLRLSCAASGSTFDINAMGWYRQAPGKERELVAAITDSGGSTHYADSVKGRFTISRDNAKNTVSLQMNSLKPEDTAVYYCNADDYLVYAGSHYGYWGQGTQVTVSS = low polyreactivity
QVQLGESGGGLFQAGGSLRLSCAASVRIFKGYNMGWYREAPRKEMELVAAISKSGGRTYYADSVKGRFTISRDNAKNTVYLQMNSQKPVDTAVYYCAARGGCKRPFGYQLQYDYWGQGTQVTVSS = high polyreactivity
QVQLVESGGGLVQAGGSLRLSCAASGFTFSYYAMGWYRQAPGKERELVARISFSGTRTYYADSVKGRFTISRDNAKNTVYLQMNSLKQEDTAVYYCAARLGYVGITARYDYWGQGTQVTVSS = high polyreactivity
QVQLVESGGGLVQAGGSLRLSCAASGRIFPRNTMGWYRQATGKERELVAAISVSGGSTYYADSVKGRVTISRDNAKNTVYLQMNRLKPEDTAVFFCAAAKCYRSGSWYEYWGQGTQVTVSS = high polyreactivity
QVQLVESGGGLVQAGGSLRLSCADSGRTFQRHARGWYRKAPGKEREFVAAISKSGGRTYYADSVKGRFTISRDTAKNTVSLQMNSLKPEDTAVYYCNRGSTHDLSHPELYGYWGQGTQVTVSS = high polyreactivity
QVQLVESGGGLVQAGGSLRLSCPASGITFKGYTMGWYRQAPGKERELVATISRGGRTYADSVKGRFTISRDNAKKTFYLQMNSLKPEDTSVYYCAADKYWAQNDYWGQGTQVTVSS = low polyreactivity
QVQLVESGGGLVQAGGSLRLSCAASGRTFVSYDMGWYRQAPGKERELVAAITYSGGSSTYYADSVKGRFTISRDNAKNTVYLQMNSLKPEDTAVYYCATDYSLSFELDYWGQGTQVTVSS = low polyreactivity

Fill in reported polyreactivity (PSR sort gate) for this entry: `QVQLVESGGGLVQAGGSLRLICAASGSTFTGYAMGWYRQAPGKERELVAAISISGGRTFYADSVKGRFTISRDNAKNTVYLQMNSLKPEDTAVYYCAAFLRGSKYSFDYWGQGTQVTVSS`
high polyreactivity

Please give measured polyreactivity (PSR sort gate) of the following entry: `QVQLVESGGGLVQAGGSLRLSCAASGRIFGPYTKGWYRQAPGKERQLVAAISCSGGSTYYADSVKGRFTISRDNAKNTVYLQMNSLKPEDTAVSYCKADHPFPQYEGGSSGQGTQVTVSS`
low polyreactivity

Name the recorded polyreactivity (PSR sort gate) of the sequence listed here: `QVQLVESGGGLVQAGGSLRLSCAASGNIIWGNAMGWYRQAPGKERELVAAISRRSGSTYYADSVKGRFTISRDNAKNTVYLQMNSLKPEDTAVYYCNTAGRVGTYDYWGQGTQVTVSS`
high polyreactivity

###

Assay: yeast display, Sf9 membrane polyspecificity reagent, FACS + sequencing; frameworks hold sequencing errors
measurement_name: polyreactivity (PSR sort gate)

The examples below pair each entry with its known result.
QVQLVESGGGLVQAGGSLRLSCAASGSIFLTNAMGRYRQAPGKERELVAAIRSGGSTSYADSVKGRLTISRDNAKNTVYLQMNSLKPEDTAVYDCNAESDSRNYKVHPSGIYEYWGQGTQVTVSS = low polyreactivity
QVQLVESGGGLVQAGGSLRLSCASSGLTFRNYAMGGYRPAPGKERELVAAITVSGGSTYYADSVKGRFTISRDNAKNTVYLQMNSLKPEDTAVYYCAARVIHTTYSRNYYYWGQGTQVTVSS = high polyreactivity
QVQLVESGGGLVQAGGSLRLSCAASGSIFHTYAMGWYRQAPGKEWELVAAISTDGSTYYADSVKGRFTISRDNAKNTVYLQRNSLKPEDTAVYYCNVAAKYDSFHRGITWYDYWGQGTQVTVSS = low polyreactivity
QVQLVESGGGLVQAGGSLRLSCAASGITSGTYAMGWYRQAPGKERELVAGISRSVTRTYYADSVKGRFTISRDNAKNTVYLQMNSLKPEDTAVYYCNTYVVRRPGYGYWGQGTQVTVSS = high polyreactivity

Kindly review the next sequence as well.
Answer with the recorded polyreactivity (PSR sort gate) of `QVQLVESGGGLVQAGGSLRLSSAATGSIFRGNAIGWYRQAPWKELELVASISYSRGSTYYADSVKGRFTISRDNEKNTVYLQMNSVKPEETAVYYCARDYDAAYYLSEYIRSVEFDYWGQGTQVTVSS` only.
low polyreactivity

###

Assay: yeast display, Sf9 membrane polyspecificity reagent, FACS + sequencing; frameworks hold sequencing errors
measurement_name: polyreactivity (PSR sort gate)

Answered cases to consult:
QHQLVESGGGLVQAGGSLRLSCAASGSIFWRYVMGWYRPAPGKERELVAAISSGGGITYYADSVTGRFTISRDTAKNTLYLQMNSLKPEDTAVYYCAAYGSLSPKYGYWGQGTQVNVSS = high polyreactivity
QVQLVESGGGLVQAGGSLRLSCAASGRIFNVNAMGWYRQAPGKERDLVARIDTGVGTKYADSVKGRFTISRDNAKNTVYLQMNSLKPEDTAVYYCAARSFSGYGYLVRPKWYYYWGQGTQVTVSS = high polyreactivity
QVQLVETGGGLVQAGGSLRLSCAASGSTVRFNAMGWYRQAPGKERELVAVIRWRGGTTYYADSVKGRFTISRDNAKNTVYLQMNSLKPVDTAVYYCNADYWFSYTWHGSYTVGYWGQGTQVTVSS = high polyreactivity
QFQLVESGGGLVQAGGSLRLSCAASGLILQNYVMGWYRQAPGKERELVAAITRSGGGTYYADSVKGRFTISRDNAKNTVYLQMNSLKPEDTAVYYCAAQRQYGKFDYWGQGTQVTVSS = high polyreactivity
QVQLVESGGGLVQAGGSLRLTCAASGFIFGTYAMGWYRLSPGKERELVAAISSGGSTYYAYSVKGRFTISRDNAKYTVYLQMNSLKPEDTAVYYCAKEGGTYRIFNYWGQGTQVTLSS = low polyreactivity
QVHLVESGGGLVHAGGSLRLSSAASGFIFRYYAMGWYRQAPGKERELVAAITSLGGRTYYADSVNGRFTISRDYAKNTVYLQMNSLKPEDTAVFYCAKSTRGTYDMGFWGQVTQVTVSS = high polyreactivity
QVQLVESGGGLVQAGGSLRLSFAASGGTFRPYAMGWYRQAPGKETELVATIRSSGGRTYYADSVKGRFTISRDNAKNTVYLQMNSLKPEDTAVYYCAKRAQTYYGYDYWVQGTQVTVSS = high polyreactivity
QVQLVESGGGLVQARGSLRLSCAASGRIFTTYAMGWYRQAPGKESELVAAISQTGGSTYYADSVKGRFTISRDNAKNTVYLKMNSLKPEDTAVYYCNAGPAGYYDDDYWGQGTQVTVSS = low polyreactivity

Find the measured polyreactivity (PSR sort gate) of `QVQLVESGGGLVQAGGSLRLSCAASGFTFSYYARGWYRQAPGKARELVATISSGGITNYADSVKGRFTISRDNAKNTDYLQMNSLKPEDTAVYYCAAEPSWWNVFYPGYNYWGQGTQVTVSS` and report it.
high polyreactivity

Answer with the recorded polyreactivity (PSR sort gate) for the sequence listed here: `QVQLVESGGCLVQAGGSLRLSCPASGNNFTAYAMGWYRQAPAKERELVAAISSSGRTNYADSVKGRFTISRDNAKNTVYLQMNSLKPEDTAVYYCAAYRLSNPFYKYDYWGQGTQVTVSS`
high polyreactivity

Quick one: give measured polyreactivity (PSR sort gate) for `QVQLVESGGGLVQPGGSLRLSCAASGSTLRRNAMGWYRQATRIERELVSAITGSRGSTYYADSVKGRFTISLDNAKNTVYLQMNCLKPEDTAVYYCAALYYYHLLPSRYYRFVYWGQGTQVTVSS`
high polyreactivity

###

Assay: yeast display, Sf9 membrane polyspecificity reagent, FACS + sequencing; frameworks hold sequencing errors
measurement_name: polyreactivity (PSR sort gate)

Some solved cases for reference:
QVQLVESGGGLVQAGGSLRLSCAASGFTFWRYAMGWSRQAPGKERELVAAISRTGGRTYYADSVKGRFTISRDNAKITVYLQMTSLKPEDTAVYYCAAVKYETYRYNYDYWGQGTQVTVSS = high polyreactivity
QVQLVESGGGLVQAGGSLRLSCAASGSTFIWNAMGWYRQAPGKERELVATITGSGDRTTYADSVKGRFTISRDNAKNTVYLQMNSLKPEDTAVYYCAADAYRWWVRYDYWGQGTQVTVSS = low polyreactivity
QVQLVESGGGLVQAGGSLRLSCAASGGTLRYYAMGGYRQAPGKERELVAVITSSAGRTYYADSVKGRFTISRDNAKNTVYLQMNSLKPEDTAVYYCPAYDAYSPYQALYDYWGQGTQVTVSS = low polyreactivity
QVQLVESGGGLVQAGGSLRLSCAASGITFWFNAMGWYRQAPGQERELVAAITSGVDTNYADSVKGRFTISRDNAKNTVYLQMNSLIPEDTAVYYCAAQGGRLKRGRTTSDYWGQGTQVTVSS = low polyreactivity

State its polyreactivity (PSR sort gate) for this sequence: `QVQLVESVGGLVQAVGSLRLSCAASGRTFRHNAMGWYRQAHGKVRELVAAISSSGTNTHYADSVKGRFTISRDIAKNTVYLQMNSLQPEDTAVYYCAADRWGARRNQYHENGYWGQGTQVTVSS`
high polyreactivity
